- Tested target: CDK2 (Homo sapiens, UniProt P24941)
- Construct: endogenous in cells; host or cells: MKN1 cells
- Protocol summary: CDK2 degradation in MKN1 cells (AlphaLISA)
- Type: cell-based
- Conditions: 14 h incubation
Value type: CDK2 degradation 14 h: Average Dmax %

Cc1cc(S(=O)(=O)C2CCN(CCN3CCN(c4cccc5c4n(C)c(=O)n5C4CCC(=O)NC4=O)CC3)CC2)ccc1Nc1ncc2cc(Cl)c(=O)n(C3CCCC3)c2n1 (stereo not drawn) | A (A (>75% o))
Cc1cc(S(=O)(=O)NCCOC2CCC(CN3CCN(c4ccc(NC5CCC(=O)NC5=O)cc4C)CC3)CC2)ccc1Nc1ncc2cc(Cl)c(=O)n(C3CCCC3)c2n1 (stereo not drawn) | A (A (>75% o))

----------
- Tested target: CDK2 (Homo sapiens)
- Construct: endogenous in cells; host or cells: MKN1 cells
- Protocol summary: CDK2 degradation in MKN1 cells (AlphaLISA)
- Assay type: cell-based
- Conditions: 14 h incubation, read-out: CDK2 degradation 14 h: Mean external-Abs DC50
I'd be grateful if you could share measured DC50 for these entries.

Reference set, count: 10
Cc1cc(S(=O)(=O)N[C@H]2C[C@H](N3CCN(CC4CCN(c5ccc6c(c5)n(C)c(=O)n6C5CCC(=O)NC5=O)CC4)CC3)C2)ccc1Nc1ncc2cc(Cl)c(=O)n(C(C)C)c2n1 (stereo partly drawn) [I-203] | < 100 nM
Cc1cc(S(=O)(=O)[C@H]2CC[C@H](CN(C)C3CCN(c4cccc5c4n(C)c(=O)n5C4CCC(=O)NC4=O)CC3)CC2)ccc1Nc1ncc2ccc(=O)n(C3CCCC3)c2n1 (stereo partly drawn) [I-63] | < 100 nM
CC1(O)CCCN(c2nc(Nc3ccc(S(=O)(=O)NC4CCC(CN5CCN(c6ccc(C7CCC(=O)NC7=O)cc6F)CC5)CC4)cc3C(F)(F)F)ncc2C(F)(F)F)C1 (stereo not drawn) [I-1110] | 100 to 500 nM
CC1(O)CCCN(c2nc(Nc3ccc(S(=O)(=O)NC4CCC(CN5CCN(c6ccc(C7CCC(=O)NC7=O)cc6F)CC5)CC4)cc3Cl)ncc2C(F)(F)F)C1 (stereo not drawn) [I-1112] | < 100 nM
Cc1cc(S(=O)(=O)N2CCC(CN(CC(F)(F)F)C3CCN(c4cccc5c4n(C)c(=O)n5C4CCC(=O)NC4=O)CC3)CC2)ccc1Nc1ncc2cc(Cl)c(=O)n(C3CCCC34CC4)c2n1 (stereo not drawn) [I-354] | > 1000 nM
Cc1cc(S(=O)(=O)NC2CCC(CN3CCN(c4ccc(C5CCC(=O)NC5=O)cc4F)CC3C)CC2)ccc1Nc1ncc2c(n1)N(C1CCCC(O)C1)C(=O)C21CC1 (stereo not drawn) [I-966] | < 100 nM
Cc1cc(S(=O)(=O)NCCOCCOCCCc2ccc3c(c2)n(C)c(=O)n3C2CCC(=O)NC2=O)ccc1Nc1ncc2c(C)cc(=O)n(C3CCCC3)c2n1 (stereo not drawn) [I-466] | > 1000 nM
CC1CN(CC2CCN(c3ccc(C4CCC(=O)NC4=O)c(F)c3)CC2)CCC1NS(=O)(=O)c1ccc(Nc2ncc(C(F)(F)F)c(N3CCCC(C)(O)C3)n2)c(F)c1 (stereo not drawn) [I-1062] | < 100 nM
Cc1cc(S(=O)(=O)NCCOCCOCCOCCOCCCc2ccc3c(c2)n(C)c(=O)n3C2CCC(=O)NC2=O)ccc1Nc1ncc2c(C)c(Br)c(=O)n(C3CCCC3)c2n1 (stereo not drawn) [I-460] | < 100 nM
Cc1cc(S(=O)(=O)NC2CC3(CCN(CC4CCN(c5cccc6c5n(C)c(=O)n6C5CCC(=O)NC5=O)CC4)CC3)C2)ccc1Nc1ncc2cc(Cl)c(=O)n(C3CCCC3)c2n1 (stereo not drawn) [I-347] | < 100 nM

Below are 3 compounds. Give each one its DC50.
1. Cc1cc(S(=O)(=O)NC2CCC(CN3CCN(c4ccc(C5CCC(=O)NC5=O)c(F)c4)CC3)CC2)c(F)cc1Nc1ncc(C(F)(F)F)c(N2CCCC(C)(O)C2)n1 (stereo not drawn) [I-1096]
2. Cc1cc(S(=O)(=O)NCCOC2CCC(CN3CCC(c4ccc5c(c4F)n(C)c(=O)n5C4CCC(=O)NC4=O)CC3)CC2)ccc1Nc1ncc(C(F)(F)F)c(C2CCC(C)(O)CC2)n1 (stereo not drawn) [I-515]
3. Cc1cc(S(=O)(=O)NCCCN2CCN(C3CCN(c4ccc5c(c4)n(C)c(=O)n5C4CCC(=O)NC4=O)CC3)CC2)ccc1Nc1ncc2cc(Cl)c(=O)n(C(C)C)c2n1 (stereo not drawn) [I-398]

["< 100 nM", "< 100 nM", "< 100 nM"]

For each listed entry, give its DC50.
1. CC1(O)CCCN(c2nc(Nc3ccc(S(=O)(=O)NC4CCC(CN5CCN(c6ccc(C7CCC(=O)NC7=O)c(Cl)c6)CC5)CC4)cc3C(F)(F)F)ncc2C(F)(F)F)C1 (stereo not drawn) [I-1103]
2. Cc1cc(S(=O)(=O)NCCOC2CCC3(CC2)CCN(CC#Cc2ccc4c(c2)n(C)c(=O)n4C2CCC(=O)NC2=O)CC3)ccc1Nc1ncc2ccc(=O)n(C3CCCC3)c2n1 (stereo not drawn) [I-471]
3. CCc1cnc(Nc2ccc(S(=O)(=O)C3CC4(CCN(CC5CCN(c6cccc7c6n(C)c(=O)n7C6CCC(=O)NC6=O)CC5)CC4)C3)cc2C)nc1C1CCC(C)(O)CC1 (stereo not drawn) [I-514]

["> 1000 nM", "< 100 nM", "> 1000 nM"]

The following compounds each have a reported value; give each one's DC50.
1. Cc1cc(S(=O)(=O)C2CC3(CCN(CC4CCN(c5ccc6c(c5F)n(C)c(=O)n6C5CCC(=O)NC5=O)CC4)CC3)C2)ccc1Nc1ncc2c(n1)N(C1CCCC1)C(=O)C21CC1 (stereo not drawn) [I-529]
2. Cc1cc(S(=O)(=O)NC2CCC(CN3CCN(c4c(F)cc(C5CCC(=O)NC5=O)cc4F)CC3)CC2)ccc1Nc1ncc(C(F)(F)F)c(N2CCCC(C)(O)C2)n1 (stereo not drawn) [I-935]
3. CCOc1cc(NC2CCC(=O)NC2=O)ccc1N1CCC(CN2CCC3(CC2)CC(S(=O)(=O)c2ccc(Nc4ncc5cc(Cl)c(=O)n(C6CCCC6)c5n4)c(C)c2)C3)CC1 (stereo not drawn) [I-309]
4. Cc1cc(S(=O)(=O)NC2CC(N3CCN(CC4CCN(c5ccc6c(c5F)n(C)c(=O)n6C5CCC(=O)NC5=O)CC4)CC3)C2)ccc1Nc1ncc(C(F)(F)F)c(N2CCCC(C)(O)C2)n1 (stereo not drawn) [I-830]

["< 100 nM", "< 100 nM", "100 to 500 nM", "< 100 nM"]

Requested read-out: DC50. Entry: Cc1cc(S(=O)(=O)C2CCN(CCN3CCN(c4cccc5c4n(C)c(=O)n5C4CCC(=O)NC4=O)CC3)CC2)ccc1Nc1ncc2c(n1)N(C1CCCC1)C(=O)C21CC1 (stereo not drawn) [I-50]
< 100 nM

----------
- Tested target: CDK2 (Homo sapiens)
- Construct: endogenous in cells; host or cells: MKN1 cells
- Protocol summary: CDK2 degradation in MKN1 cells (AlphaLISA)
- Assay type: cell-based
- Conditions: 14 h incubation, read-out: CDK2 degradation 14 h: Mean external-Abs DC50
- Experimental: Degradation of CDK2 in MKN1 cells was measured using AlphaLISA technology (PerkinElmer ALSU-TCDK2-A10K). MKN1 cells were maintained in RPMI1640 medium containing 10% FBS+1× penn/strep. […] Under subdued light, the plates were analyzed on an EnVision Microplate Reader (PerkinElmer Model 2009-0030). […] The data were analyzed using Xlfit (v5.3. 1.3) and the dose-dependent CDK2 degradation data were fit using a four-parameter logistic model to calculate DC50.
Value type: DC50

Consider the following illustrative entries.
CC1(O)CCCN(c2nc(Nc3ccc(S(=O)(=O)NC4CCC(CN5CCN(c6ccc(C7CCC(=O)NC7=O)cc6F)CC5)CC4)cc3OC(F)F)ncc2C(F)(F)F)C1 (stereo not drawn) | 100 to 500 nM
Cc1nc(S(=O)(=O)NC2CCC(CN3CCN(c4ccc(C5CCC(=O)NC5=O)c(F)c4)CC3)CC2)ccc1Nc1ncc(C(F)(F)F)c(N2CCCC(C)(O)C2)n1 (stereo not drawn) | < 100 nM

Quick check: DC50 of Cc1cc(S(=O)(=O)NC2CCC(CN3CCN(c4cc(F)cc(NC5CCC(=O)NC5=O)c4)CC3)CC2)ccc1Nc1ncc(C(F)(F)F)c(N2CCCC(C)(O)C2)n1 (stereo not drawn) [I-1144] ?
100 to 500 nM

----------
- Tested target: CDK2 (Homo sapiens, UniProt P24941)
- Construct: endogenous in cells; host or cells: MKN1 cells
- Protocol summary: CDK2 degradation in MKN1 cells (AlphaLISA)
- Type: cell-based
- Conditions: 14 h incubation
Value type: CDK2 degradation 14 h: Average Dmax %

Consider the reported CDK2 degradation 14 h: Average Dmax % for these compounds:
Cn1c(=O)n(C2CCC(=O)NC2=O)c2cccc(CCCOCCOCC(=O)N3CCC(Nc4ncc5cc(C(F)F)c(=O)n([C@@H]6CCC[C@]6(C)O)c5n4)CC3)c21 (stereo partly drawn) | D (D (<25%))
Cc1cc(S(=O)(=O)NCCOCCOCCOCCCc2ccc3c(c2)n(C)c(=O)n3C2CCC(=O)NC2=O)ccc1Nc1ncc2cc(Cl)c(=O)n(C3CCCC3)c2n1 (stereo not drawn) | A (A (>75% o))
Cc1cc(S(=O)(=O)C2CC3(CCN(CC4CCN(c5cccc6c5n(C)c(=O)n6C5CCC(=O)NC5=O)CC4)CC3)C2)ccc1Nc1ncc(C(F)(F)F)c(N2CCC(C(C)(C)O)C2)n1 (stereo not drawn) [I-841] | A (A (>75% o))
Cc1cc(S(=N)(=O)C2CC3(CCN(CC4CCN(c5cccc6c5n(C)c(=O)n6C5CCC(=O)NC5=O)CC4)CC3)C2)ccc1Nc1ncc2cc(Cl)c(=O)n(C3CCCC3)c2n1 (stereo not drawn) | A (A (>75% o))
Cc1cc(S(=O)(=O)C2CCN(CCN3CCN(c4cccc5c4n(C)c(=O)n5C4CCC(=O)NC4=O)CC3)CC2)ccc1Nc1ncc(C(F)(F)F)c(-c2cnn(C)c2)n1 (stereo not drawn) | A (A (>75% o))

Provide the reported CDK2 degradation 14 h: Average Dmax % of each entry below, same order.
1. Cc1cc(S(=O)(=O)C2CC3(CCN(CC4CCN(c5ccc6c(c5F)n(C)c(=O)n6C5CCC(=O)NC5=O)CC4)CC3)C2)ccc1Nc1ncc(C(F)(F)F)c(N2CCC(C(C)(C)O)C2)n1 (stereo not drawn) [I-840]
2. Cc1cc(S(=O)(=O)NCCOC2CCC3(CC2)CCN(CCCc2ccc4c(c2)n(C)c(=O)n4C2CCC(=O)NC2=O)CC3)ccc1Nc1ncc2ccc(=O)n(C3CCCC3)c2n1 (stereo not drawn)

["B (B (>50% -75%))", "A (A (>75% o))"]

Give one value of CDK2 degradation 14 h: Average Dmax % per listed compound.
1. Cc1cc(S(=O)(=O)NC2(C)CCC(CN3CCN(c4ccc(C5CCC(=O)NC5=O)cc4F)CC3)CC2)ccc1Nc1ncc(C(F)(F)F)c(N2CCC[C@](C)(O)C2)n1 (stereo partly drawn) [I-814]
2. Cc1cc(S(=O)(=O)C2CC3(CCN(CC4CCN(c5cccc(N6CCC(=O)NC6=O)c5)CC4)CC3)C2)ccc1Nc1ncc2cc(Cl)c(=O)n(C3CCCC3)c2n1
3. Cc1cc(S(=O)(=O)NC2CCC(CN3CCN(c4ccc(C5CCC(=O)NC5=O)c(F)c4)CC3)CC2)ncc1Nc1ncc(C(F)(F)F)c(N2CCCC(C)(O)C2)n1 (stereo not drawn)
4. Cc1cc(S(=O)(=O)NC2CCC(CN3CCN(c4c(F)cc(C5CCC(=O)NC5=O)cc4Cl)CC3)CC2)ccc1Nc1ncc(C(F)(F)F)c(N2CCCC(C)(O)C2)n1 (stereo not drawn)
5. COCc1cc(S(=O)(=O)NC2CCC(CN3CCN(c4ccc(C5CCC(=O)NC5=O)c(F)c4)CC3)CC2)ccc1Nc1ncc(C(F)(F)F)c(N2CCCC(C)(O)C2)n1 (stereo not drawn)

1: A (A (>75% o)); 2: D (D (<25%)); 3: A (A (>75% o)); 4: A (A (>75% o)); 5: A (A (>75% o))

Each of the following entries comes with a recorded value; kindly state CDK2 degradation 14 h: Average Dmax % for each.
1. Cc1cc(S(=O)(=O)C2CC3(CCN(CC4CCN(c5ccc(NC6CCC(=O)NC6=O)cc5F)CC4)CC3)C2)ccc1Nc1ncc2cc(Cl)c(=O)n(C3CCCC3)c2n1 (stereo not drawn) [I-36]
2. CC1CN(CC2CCN(c3ccc(C4CCC(=O)NC4=O)c(F)c3)CC2)CCC1NS(=O)(=O)c1ccc(Nc2ncc(C(F)(F)F)c(N3CCCC(C)(O)C3)n2)c(F)c1 (stereo not drawn) [I-1063]
3. Cc1cc(S(=O)(=O)NC2CCC(CN3CCN(c4c(F)cc(C5CCC(=O)NC5=O)cc4F)CC3)CC2)ccc1Nc1ncc(C(F)(F)F)c(N2CCCC(C)(O)C2)n1 (stereo not drawn)

["B (B (>50% -75%))", "A (A (>75% o))", "A (A (>75% o))"]
